Where do these numbers come from? They come from PubChem BioAssay (EPA / NIEHS).

- ASSAY_OVERVIEW: ATG_RORE_CIS: Attagene CIS-FACTORIAL HepG2 Assay for human RAR-related Orphan Receptor Element (RORE) (AID 2282959)
- SETUP_CONDITIONS: HepG2 Attagene cis-factorial RORE reporter, mRNA; actives raise or lower the signal
Activity calls are given as the source filed them. The calls were made as follows: active = hit-call score of the fitted dose curve at least 0.9, where 1 is the maximum; inactive = score below 0.9.
Please state which outcome applies, choosing from class 1 for active, class 0 for inactive

[
  {
    "MOLECULE": "CNCc1cc(F)ccc1Oc1ccc(Cl)c(Cl)c1",
    "DISCRETE_LABEL": "class 0"
  },
  {
    "MOLECULE": "CCCCCCCCCCO",
    "DISCRETE_LABEL": "class 0"
  },
  {
    "MOLECULE": "NCCO",
    "DISCRETE_LABEL": "class 0"
  },
  {
    "MOLECULE": "NC(=O)Cn1c(=O)cc(CCN2CCN(c3nccc4sccc34)CC2)c2ccc(F)cc21",
    "DISCRETE_LABEL": "class 0"
  }
]

Problem: Assay outcome for O=c1[nH]cc(F)c(=O)[nH]1 : what was it?
Result: class 0

Problem: Assay outcome for CCNc1cccc(C)c1 : what was it?
Result: class 0

Problem: Assay outcome for CC(C)c1ccc(C(=O)N=C(N)N)cc1S(C)(=O)=O : what was it?
Result: class 0

Problem: Assay outcome for CCc1c(C(=O)NN2CCCCC2)nn(-c2ccc(Cl)cc2Cl)c1-c1ccc(Br)cc1 : what was it?
Result: class 0

Problem: Assay outcome for O=c1c(O)c(-c2ccc(O)c(O)c2)oc2cc(O)cc(O)c12 : what was it?
Result: class 0

Problem: Assay outcome for NS(=O)(=O)c1cc2c(cc1Cl)NCNS2(=O)=O : what was it?
Result: class 0

Problem: Assay outcome for CCCCCCCCCCCC(=O)OC : what was it?
Result: class 0
